PROTOCOL DESCRIPTION: Solubility of propiverine-hydrochloride in water
Type: physicochemical
SETUP CONDITIONS: aqueous buffer, pH 7.2, 24 ° C.
Counter-ions that a name gives are not always drawn.
ASSAY METRIC: solubility (µg/mL)
Form entry: value (µg/mL) — number only.

Problem: Requested field: solubility. Item: CCCOC(C(=O)OC1CCN(C)CC1)(c1ccccc1)c1ccccc1 [propiverine-hydrochloride]
Result: 1100

* * *

PROTOCOL DESCRIPTION: Solubility of propiverine-hydrochloride in water
Assay type: physicochemical
SETUP CONDITIONS: aqueous buffer, pH 5.8, 37 ° C.
Structures can show the parent of a compound that is named as a salt.
ASSAY METRIC: solubility

Problem: Requested field: solubility. Item: CCCOC(C(=O)OC1CCN(C)CC1)(c1ccccc1)c1ccccc1 [propiverine-hydrochloride]
Result: 368 mg/mL
